tested on: human glucagon receptor (human) (UniProt P47871)
Sequence (P47871 26-477): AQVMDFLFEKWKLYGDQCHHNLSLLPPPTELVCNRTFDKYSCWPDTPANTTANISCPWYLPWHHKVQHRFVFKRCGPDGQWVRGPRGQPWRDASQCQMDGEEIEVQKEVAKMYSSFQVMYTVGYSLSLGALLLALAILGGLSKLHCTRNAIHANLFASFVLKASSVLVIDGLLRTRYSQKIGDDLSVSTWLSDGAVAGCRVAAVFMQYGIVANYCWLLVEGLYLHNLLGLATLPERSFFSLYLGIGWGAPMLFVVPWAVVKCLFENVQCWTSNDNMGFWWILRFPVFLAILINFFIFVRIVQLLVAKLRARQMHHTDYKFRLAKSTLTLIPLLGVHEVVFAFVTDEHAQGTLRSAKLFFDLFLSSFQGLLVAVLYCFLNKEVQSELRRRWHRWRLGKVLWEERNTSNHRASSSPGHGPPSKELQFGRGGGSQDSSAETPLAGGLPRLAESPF
assay explanation: cell-based or functional assay
assay readout: cAMP Rel EC50 (in the presence of 1% HSA) (nM)
Write it as a number; the unit nM goes unstated.

binder	recorded value
YXQGTXTSDXSILLDKKAQXAFIEYLEEGGPSSGAPPPSGEEE (non-natural residues (Aib, αMeF(2F), 4Pal); lipidated Lys; C-amide; synthetic construct; SITE 2: note = 2-Aminoisobutyric Acid; SITE 6: note = alpha-methyl-2-fluoro-L-phenylalanine; SITE 10: note = 3-(4-Pyridyl)-L-alanine; SITE 17: note = Lysine is chemically modified through conjugation of the epsilon-amino group of the Lysine side chain with (gamma-Glu)2-CO-(CH2)1) [Example 611]	627
YXQGTFTSDFSKXLDKKAQXAFIEYLLEXGPSSGAPPPSSG (synthetic construct; SITE 2: note = 2-Aminoisobutyric Acid; SITE 13: note = alpha-methyl-leucine; SITE 17: note = Lysine is chemically modified through conjugation of the epsilon-amino group of the Lysine side chain with (2-[2-(2-Amino-ethoxy)-ethoxy]-acetyl)-(gamma-Glu)-CO-(CH2) 18-CO2H; SITE 20: n) [Example 44]	1050

Read the next record carefully.
What the record says about YXQGTFTSDFSXXLDKKAQXAFIEYLLEAGPSSGXPPPSGH (Aib, Orn, αMeL, D-Ala, 4Pal; acylated lysine; amide; synthetic construct; SITE 2: note = 2-Aminoisobutyric Acid; SITE 12: note = L-ornithine; SITE 13: note = alpha-methyl-leucine; SITE 17: note = Lysine is chemically modified through conjugation of the epsilon-amino group of the Lysine side chain with (2-[2-(2-Amino-ethoxy)-ethoxy]-acetyl)2-(gamma-Glu)) [Example 257] : cAMP Rel EC50 (in the presence of 1% HSA) is 1210
